For each entry below, report its inhibition at 100 µM value.
# measured target: UniProt P19643
# Sequence (P19643 whole entry): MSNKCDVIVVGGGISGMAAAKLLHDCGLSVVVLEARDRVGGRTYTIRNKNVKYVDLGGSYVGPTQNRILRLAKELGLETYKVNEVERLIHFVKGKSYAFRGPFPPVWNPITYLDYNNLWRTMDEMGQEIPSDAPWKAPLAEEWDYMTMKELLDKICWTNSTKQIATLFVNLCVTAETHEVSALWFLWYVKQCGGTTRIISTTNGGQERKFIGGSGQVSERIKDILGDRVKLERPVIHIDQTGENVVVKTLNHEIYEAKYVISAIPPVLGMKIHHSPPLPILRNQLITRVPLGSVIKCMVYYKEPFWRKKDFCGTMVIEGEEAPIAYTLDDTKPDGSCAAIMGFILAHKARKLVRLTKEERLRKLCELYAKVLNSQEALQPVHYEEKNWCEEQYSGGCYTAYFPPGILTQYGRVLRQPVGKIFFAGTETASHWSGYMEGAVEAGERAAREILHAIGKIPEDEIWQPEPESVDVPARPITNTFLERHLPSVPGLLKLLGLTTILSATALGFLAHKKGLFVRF
# protocol summary: Monoamine oxidase B
# Assay type: biochemical
# experimental context: read-out: MAO B % inhibition
One number for each entry, in %.

Check out these entries, answers already filled in.
{"columns": ["structure notation", "inhibition at 100 µM, %"],
 "data": [
  ["CC(=NN=C1CS(=O)(=O)N(C)c2ccccc21)c1ccc(C)s1", 31.1],
  ["CC(=NN=C1CS(=O)(=O)N(C)c2ccccc21)c1sccc1Cl", 41.9],
  ["COc1ccc2nc(Cl)c(C=NN=C3CS(=O)(=O)N(C)c4ccccc43)cc2c1", 35.8]
]}

Here's the next entry for you.
**Query** Write down the reported inhibition at 100 µM (system: UniProt P19643) of `CN1c2ccccc2C(=NN=Cc2cc3ccccc3nc2Cl)CS1(=O)=O`
**Result** 43.6

====

# measured target: MAO A (Rattus norvegicus)
# Sequence (P21396 whole entry): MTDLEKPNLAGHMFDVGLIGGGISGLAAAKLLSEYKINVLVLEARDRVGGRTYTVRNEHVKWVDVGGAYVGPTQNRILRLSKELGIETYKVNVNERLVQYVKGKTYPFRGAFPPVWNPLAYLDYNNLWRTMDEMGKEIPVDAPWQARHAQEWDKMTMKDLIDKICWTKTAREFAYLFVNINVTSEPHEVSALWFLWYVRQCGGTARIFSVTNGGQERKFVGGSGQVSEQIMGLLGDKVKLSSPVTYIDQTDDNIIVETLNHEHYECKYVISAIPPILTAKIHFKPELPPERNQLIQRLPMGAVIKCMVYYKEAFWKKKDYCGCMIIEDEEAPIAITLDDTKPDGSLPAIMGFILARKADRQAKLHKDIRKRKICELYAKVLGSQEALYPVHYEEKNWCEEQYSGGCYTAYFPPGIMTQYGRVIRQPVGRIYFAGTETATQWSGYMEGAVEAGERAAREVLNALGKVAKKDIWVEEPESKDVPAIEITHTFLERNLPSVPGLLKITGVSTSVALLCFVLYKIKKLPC
# protocol summary: Monoamine oxidase A
# Assay type: biochemical
# experimental context: read-out: MAO A % inhibition
measure name: inhibition at 100 µM (%)
Give bare numbers, in %.

{"columns": ["compound", "unit annotation", "inhibition at 100 µM"],
 "data": [
  ["CC(=NN=C1CS(=O)(=O)N(C)c2ccccc21)c1cc(C)sc1C [9j]", "%", 26.3],
  ["CC(=NN=C1CS(=O)(=O)N(C)c2ccccc21)c1ccc([N+](=O)[O-])s1 [9i]", "%", 39.8]
]}

Below are some compounds; for each one, tell me its inhibition at 100 µM.
1. CC(=NN=C1CS(=O)(=O)N(C)c2ccccc21)c1sccc1C [9b]
2. CC(=NN=C1CS(=O)(=O)N(C)c2ccccc21)c1ccc(Br)s1 [9h]
3. CN1c2ccccc2C(=NN=Cc2cc3ccc(Cl)cc3nc2Cl)CS1(=O)=O [7f]
4. CN1c2ccccc2C(=NN=Cc2cc3ccccc3nc2Cl)CS1(=O)=O [7a]

**Result**
38.5
28.4
2.03
38.8

Below are some compounds; for each one, tell me its inhibition at 100 µM.
1. CC(=NN=C1CS(=O)(=O)N(C)c2ccccc21)c1cccs1 [9a]
2. CC(=NN=C1CS(=O)(=O)N(C)c2ccccc21)c1sccc1Br [9f]

**Result**
2.09
41.6

**Query** Give recorded inhibition at 100 µM. CC(=NN=C1CS(=O)(=O)N(C)c2ccccc21)c1cc(C)cs1 [9c]
**Result** 39.1

Source: paper PMC9828044
